Test: modulation of AI-2 quorum-sensing luminescence – JMH597 strain, luminescence/OD600 ratio, primary screen (AID 2094);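 note: luminescence divided by OD600 gain over 9 h not by final OD600 alone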
Conditions: Vibrio harveyi JMH597 AI-2 luminescence/OD600 ratio, 9 h; at 7.5 µM; stronger effect = lower value; 0 = neutral-control median; strain lacks LuxN and CqsS sensors
The whole screen tested about 300,000 compounds, of which about 1,200 (0.4%) were called active. The sample as a whole holds a higher share of actives than the screen did.
Measured Endpoint: activity change (%)
Give just the number in %; leave the unit off.

Noted for COc1ccc(Cc2nc3ccc(C(=O)N4CCC(N(C)C)C4)cc3o2)cc1 (stereo not drawn) : its activity change reads -2.62

Noted for CCc1ccc(-c2cc(C)no2)cc1S(=O)(=O)NCCc1ccc(S(N)(=O)=O)cc1 : its activity change reads 9.18

Source of measurements: PubChem BioAssay AID2094
